# target: Poly [ADP-ribose] polymerase 1 (Homo sapiens, UniProt P09874)
# Sequence (P09874 whole entry): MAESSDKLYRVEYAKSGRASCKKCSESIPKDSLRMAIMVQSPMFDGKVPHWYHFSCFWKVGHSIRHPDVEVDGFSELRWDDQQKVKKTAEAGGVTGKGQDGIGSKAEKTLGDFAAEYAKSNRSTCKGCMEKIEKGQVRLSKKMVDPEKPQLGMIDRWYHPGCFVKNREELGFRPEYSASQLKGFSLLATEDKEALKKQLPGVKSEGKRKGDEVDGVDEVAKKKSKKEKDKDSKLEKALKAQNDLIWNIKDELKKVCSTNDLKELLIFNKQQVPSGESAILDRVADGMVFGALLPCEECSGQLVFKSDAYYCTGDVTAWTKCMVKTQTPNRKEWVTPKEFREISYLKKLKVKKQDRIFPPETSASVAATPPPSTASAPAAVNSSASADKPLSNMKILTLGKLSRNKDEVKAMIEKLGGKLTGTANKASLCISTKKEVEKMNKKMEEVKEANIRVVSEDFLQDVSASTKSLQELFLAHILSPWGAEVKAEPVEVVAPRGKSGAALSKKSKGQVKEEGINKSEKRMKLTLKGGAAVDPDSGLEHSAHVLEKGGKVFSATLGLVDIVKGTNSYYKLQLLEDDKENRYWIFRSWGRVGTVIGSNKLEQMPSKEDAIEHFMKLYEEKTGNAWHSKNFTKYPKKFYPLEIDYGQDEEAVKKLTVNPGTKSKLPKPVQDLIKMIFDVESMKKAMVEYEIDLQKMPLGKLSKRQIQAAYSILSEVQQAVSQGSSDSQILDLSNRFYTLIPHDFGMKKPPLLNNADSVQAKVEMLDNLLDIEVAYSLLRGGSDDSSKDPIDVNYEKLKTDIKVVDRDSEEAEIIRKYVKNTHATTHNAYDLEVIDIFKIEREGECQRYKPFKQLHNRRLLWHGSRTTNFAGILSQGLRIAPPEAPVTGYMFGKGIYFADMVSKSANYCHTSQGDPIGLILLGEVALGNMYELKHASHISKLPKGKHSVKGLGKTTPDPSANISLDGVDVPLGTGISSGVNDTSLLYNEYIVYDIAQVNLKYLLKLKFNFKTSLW
pIC50: −log10 of the molar value.
value-kind: pIC50

// field: pIC50; key: `COc1ccccc1N1CCN(c2nc3c(c(=O)[nH]2)CCCC3)CC1` ; value = < 4.00

###

# experiment-summary: Disruption of ARC5 domain of TNKS1 (unknown origin)/USP25 (unknown origin) protein interaction assessed as inhibition constant
# Set-up: species or system Homo sapiens
value-kind: pKi
Give bare numbers, as −log10 of the molar value.

Reported pKi ( `CCc1ccc(OCC(=O)Nc2sc(C)c(C)c2C(N)=O)c(F)c1` ) = 4.69
